System: HMEC-hTERT
protocolText: Clonogenic survival assay
Format: cell-based
experimentalParameters: Homo sapiens, read-out: IC50 of olaparib, continuous exposure
pIC50: −log10 of the molar value.

smiles: O=C(c1cc(Cc2n[nH]c(=O)c3ccccc23)ccc1F)N1CCN(C(=O)C2CC2)CC1
pIC50: 5.26

* * *

Test system: MCF-10A
protocolText: Clonogenic survival assay
Assay type: cell-based, human
experimentalParameters: cisplatin first 30 hr, colony counting at 9 days, read-out: IC50 (survival), cisplatin alone
testReadout: IC50 (µM)

compound: N.N.[Cl][Pt][Cl] [cisplatin]
readoutNumber: 3.4

* * *

Test system: Brca2^lex1/lex2 mES cells
protocolText: Clonogenic survival assay, mES cells
Format: cell-based, mouse
experimentalParameters: Mus musculus, read-out: IC50 (clonogenic survival)
pIC50: −log10 of the molar value.
Parameter pIC50: see the listing below.
testReadout: pIC50

smiles: C[C@]1(c2nc3c(C(N)=O)cccc3[nH]2)CCCN1
readoutNumber: 6.77

smiles: O=C(c1cc(Cc2n[nH]c(=O)c3ccccc23)ccc1F)N1CCN(C(=O)C2CC2)CC1
readoutNumber: 7.89

* * *

IC50 values by entry
Test system: EBV-BL
protocolText: Survival, trypan blue exclusion test of cell viability
Format: cell-based, human
experimentalParameters: Homo sapiens, 240 h, read-out: IC50 (cell survival), EBV-BL; continuous exposure 10 days; trypan blue exclusion
Text: Human mammary epithelial cell lines used included non-tumorigenic diploid MCF-10A, HMEC-hTERT and tumorigenic MDA-MB-468 (basal) and MCF-7 (luminal). […] Blood samples were obtained from normal donor participants. The participants provided written informed consent to IRB protocol #95–054 approved by the Institutional Review Board at MSKCC. […] Viable cells were scored by trypan blue exclusion.
testReadout: IC50

smiles: O=C(c1cc(Cc2n[nH]c(=O)c3ccccc23)ccc1F)N1CCN(C(=O)C2CC2)CC1
testReadout: IC50
result: 3.6 µM

smiles: C[C@]1(c2nc3c(C(N)=O)cccc3[nH]2)CCCN1
testReadout: IC50
result: 42.5 µM

* * *

System: human cells
protocolText: Olaparib cytotoxicity on continuous exposure, summary over cell types
Type: cell-based
experimentalParameters: typical value over cell types
pIC50: −log10 of the molar value.
testReadout: pIC50

smiles: O=C(c1cc(Cc2n[nH]c(=O)c3ccccc23)ccc1F)N1CCN(C(=O)C2CC2)CC1
result: < 5.70

* * *

System: Brca2^lex1/lex2 mES cells
protocolText: Clonogenic survival assay, mES cells
Format: cell-based, mouse
experimentalParameters: Mus musculus; Brca2^lex1/lex2 mES cells; read-out: IC50 (clonogenic survival)
pIC50: −log10 of the molar value.

compound: NC(=O)c1ccc(I)c([N+](=O)[O-])c1 [BSI-201]
target: Brca2^lex1/lex2 mES cells
pIC50: 4.15

* * *

Tested on: primary T cell 2
protocolText: Survival, trypan blue exclusion test of cell viability
Format: cell-based
experimentalParameters: Homo sapiens, read-out: IC50 of olaparib, continuous exposure

smiles: O=C(c1cc(Cc2n[nH]c(=O)c3ccccc23)ccc1F)N1CCN(C(=O)C2CC2)CC1
IC50 (nM): 2700
